Where do the numbers come from? From PubChem BioAssay AID504703.

# IC90 annotations
Tested on: M. tuberculosis H37Rv growth inhibition with meropenem
Assay: H37Rv growth inhibition with and without meropenem, dose response, set 2 (AID 504703);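 note: growth ran 7 days at 37 °C then overnight with Alamar Blue before reading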
Setup conditions: M. tuberculosis H37Rv growth inhibition; measured here: IC90 without meropenem

These recorded examples may help you get a feel for the data.
Compound string: COc1ccc2c(c1)c(C(C)=O)c(C)n2-c1ccccc1
Measured target: M. tuberculosis H37Rv growth inhibition with meropenem
IC90: > 25 µM
--
Compound string: CC(=O)Nc1ccc2nc(NC(=O)Cc3ccccc3)sc2c1
Measured target: M. tuberculosis H37Rv growth inhibition with meropenem
IC90: > 25 µM
--
Compound string: CCOc1ccc2nc(NC(=O)Cc3ccc(OC)cc3)sc2c1
Measured target: M. tuberculosis H37Rv growth inhibition with meropenem
IC90: > 25 µM
--
Compound string: CCCN1CC(O)=C(c2nc3ccccc3s2)C1=N
Measured target: M. tuberculosis H37Rv growth inhibition with meropenem
IC90: > 25 µM
--
Compound string: CC(C)(Oc1ccc(Cl)cc1)C(=O)Nc1nc2ccccc2s1
Measured target: M. tuberculosis H37Rv growth inhibition with meropenem
IC90: > 25 µM

# input for lookup
Query :: Please report the recorded IC90 for Cc1ccc(OCC(=O)Nc2cccc3ncccc23)c(C)c1 .
Result :: > 25 µM

###

Tested on: M. tuberculosis H37Rv growth inhibition with meropenem
Assay: H37Rv growth inhibition with and without meropenem, dose response, set 2 (AID 504703);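 note: growth ran 7 days at 37 °C then overnight with Alamar Blue before reading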
Setup conditions: M. tuberculosis H37Rv growth inhibition; measured here: IC90 without meropenem
Measured IC90, listed per entry for reference.

Compound string: N/C(=N\c1nc2ccccc2o1)NC(=O)c1ccccc1F
IC90: > 25 µM

Query :: Param readout= IC90; system= M. tuberculosis H37Rv growth inhibition with meropenem; entry= CCOc1ccc2nc(NC(=O)C3(c4ccccc4)CCCC3)sc2c1 ; returns value.
Result :: 8.95 µM

Query :: What reported IC90 corresponds to Cc1ccc(OCC(=O)Nc2nc3ccc(F)cc3s2)cc1 on M. tuberculosis H37Rv growth inhibition with meropenem?
Result :: > 25 µM

Query :: What IC90 appears in the records for this compound with M. tuberculosis H37Rv growth inhibition with meropenem? COc1ccc2oc(C(=O)Nc3nc4ccccc4[nH]3)c(C)c2c1
Result :: > 25 µM

###

Tested on: M. tuberculosis H37Rv growth inhibition with meropenem
Assay: H37Rv growth inhibition with and without meropenem, dose response, set 2 (AID 504703);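 note: growth ran 7 days at 37 °C then overnight with Alamar Blue before reading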
Setup conditions: M. tuberculosis H37Rv growth inhibition; measured here: IC90 without meropenem
Endpoint label: IC90

Some solved cases for reference:
Molecule: Cc1ccc(OCC(=O)Nc2cccc3ccccc23)c(C)c1
IC90: > 25 µM
--
Molecule: Cc1ccc(OCC(=O)Nc2cccc3c(NC(=O)COc4ccc(C)cc4C)cccc23)c(C)c1
IC90: > 25 µM
--
Molecule: CC(=O)c1c(C)n(-c2cccc(Cl)c2)c2ccc(O)cc12
IC90: > 25 µM
--
Molecule: COC(=O)c1c(C)[nH]c2ccc(F)cc12
IC90: > 25 µM
--
Molecule: COC(=O)c1c(C)n(-c2ccccc2)c2ccc(O)cc12
IC90: > 25 µM

Let's switch to this molecule now.
Query :: If you can, please state the reported IC90 value of COc1ccc2nc(NC(=O)C(C)Oc3ccccc3)sc2c1 (stereo unspecified) .
Result :: > 25 µM
